Molecular target: T1, recombinant cynomolgus monkey (Macaca fascicularis) TfR1 (cynomolgus monkey (Macaca fascicularis), UniProt Q5RDH6 87-760 (Pongo abelii entry), limits assumed)
T1 construct: Recombinant protein; also called cTfR1; cyTfR1
T1 chain: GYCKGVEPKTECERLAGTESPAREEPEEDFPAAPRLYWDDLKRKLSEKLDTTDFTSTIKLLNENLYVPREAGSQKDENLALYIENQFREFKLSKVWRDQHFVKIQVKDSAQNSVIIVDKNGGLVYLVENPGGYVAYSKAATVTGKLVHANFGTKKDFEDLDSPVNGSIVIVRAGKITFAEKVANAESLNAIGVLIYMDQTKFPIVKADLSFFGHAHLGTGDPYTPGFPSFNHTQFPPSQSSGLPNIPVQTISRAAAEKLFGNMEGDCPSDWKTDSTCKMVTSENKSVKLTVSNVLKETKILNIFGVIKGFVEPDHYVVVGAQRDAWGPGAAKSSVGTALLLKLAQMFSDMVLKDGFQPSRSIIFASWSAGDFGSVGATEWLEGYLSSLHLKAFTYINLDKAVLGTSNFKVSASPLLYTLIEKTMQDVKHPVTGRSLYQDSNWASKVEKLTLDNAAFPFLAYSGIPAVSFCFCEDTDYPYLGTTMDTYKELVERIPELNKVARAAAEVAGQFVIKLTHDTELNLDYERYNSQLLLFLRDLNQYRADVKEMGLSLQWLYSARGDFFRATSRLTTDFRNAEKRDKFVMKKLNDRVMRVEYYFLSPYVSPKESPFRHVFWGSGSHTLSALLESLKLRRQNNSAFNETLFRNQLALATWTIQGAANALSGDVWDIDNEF
Assay: ELISA, recombinant TfR1 coated, unconjugated Fab (row 'Fab binding affinity ELISA')
Experimental Readout: EC50 (nM)
Reply with just the number (in nM).

# Binder, EC50 (nM)
records = [
    ("humanized anti-TfR Fab 5H12 VH5 (C33D)/Vκ4 (Fab, V domains shown, also called 5H12 (VH5-C33D/Vk4)) VH: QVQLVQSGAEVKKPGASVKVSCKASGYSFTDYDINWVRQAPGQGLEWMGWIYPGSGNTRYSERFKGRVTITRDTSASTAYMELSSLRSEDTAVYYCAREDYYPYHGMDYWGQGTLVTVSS VL: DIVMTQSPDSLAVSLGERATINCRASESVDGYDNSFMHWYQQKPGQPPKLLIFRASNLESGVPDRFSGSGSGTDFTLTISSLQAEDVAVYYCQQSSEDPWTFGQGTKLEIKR", 3.5),
    ("humanized anti-TfR Fab 5H12 VH5 (C33Y)/Vκ3 (Fab, V domains shown, also called 5H12 (VH5-C33Y/Vk3)) VH: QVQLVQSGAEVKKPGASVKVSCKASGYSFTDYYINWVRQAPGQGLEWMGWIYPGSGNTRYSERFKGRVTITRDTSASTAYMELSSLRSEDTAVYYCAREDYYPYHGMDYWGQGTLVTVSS VL: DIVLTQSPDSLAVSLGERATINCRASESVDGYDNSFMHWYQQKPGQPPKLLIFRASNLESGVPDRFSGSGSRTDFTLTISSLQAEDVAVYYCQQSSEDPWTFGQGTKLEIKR", 2.1),
    ("humanized anti-TfR Fab 3A4 VH3 (N54T)/Vκ4 (Fab, V domains shown, also called 3A4 (VH3-N54T/Vk4)) VH: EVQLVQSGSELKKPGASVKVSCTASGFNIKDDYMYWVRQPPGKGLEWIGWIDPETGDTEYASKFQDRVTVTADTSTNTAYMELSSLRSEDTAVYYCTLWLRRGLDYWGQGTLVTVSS VL: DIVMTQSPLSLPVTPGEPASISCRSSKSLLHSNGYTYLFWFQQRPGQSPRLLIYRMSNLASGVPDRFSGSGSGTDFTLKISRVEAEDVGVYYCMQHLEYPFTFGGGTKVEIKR", 156),
    ("humanized anti-TfR Fab 5H12 VH5 (C33Y)/Vκ4 (Fab, V domains shown, also called 5H12 (VH5-C33Y/Vk4)) VH: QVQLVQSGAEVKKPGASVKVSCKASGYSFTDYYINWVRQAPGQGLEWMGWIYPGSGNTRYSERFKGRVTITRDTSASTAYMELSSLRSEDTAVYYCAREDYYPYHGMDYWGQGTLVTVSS VL: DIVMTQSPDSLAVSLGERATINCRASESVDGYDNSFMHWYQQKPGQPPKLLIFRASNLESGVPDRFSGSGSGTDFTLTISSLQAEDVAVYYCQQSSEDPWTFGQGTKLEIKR", 3.3),
]

Next binder, EC50 to be filled in.
Per the record, humanized anti-TfR Fab 3A4 VH3/Vκ4 (Fab, V domains shown, also called 3A4 (VH3/Vk4)) VH: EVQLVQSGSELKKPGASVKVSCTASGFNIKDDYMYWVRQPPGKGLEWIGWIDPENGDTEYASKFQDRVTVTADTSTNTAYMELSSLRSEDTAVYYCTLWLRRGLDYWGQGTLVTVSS VL: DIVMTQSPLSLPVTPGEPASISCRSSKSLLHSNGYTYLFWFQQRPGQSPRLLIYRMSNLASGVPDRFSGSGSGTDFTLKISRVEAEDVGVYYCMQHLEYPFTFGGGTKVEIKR has EC50 of 122
